# IC50 per record follows
# assayed-target: Cholinesterase (Equus caballus)
# Sequence (P81908 whole entry): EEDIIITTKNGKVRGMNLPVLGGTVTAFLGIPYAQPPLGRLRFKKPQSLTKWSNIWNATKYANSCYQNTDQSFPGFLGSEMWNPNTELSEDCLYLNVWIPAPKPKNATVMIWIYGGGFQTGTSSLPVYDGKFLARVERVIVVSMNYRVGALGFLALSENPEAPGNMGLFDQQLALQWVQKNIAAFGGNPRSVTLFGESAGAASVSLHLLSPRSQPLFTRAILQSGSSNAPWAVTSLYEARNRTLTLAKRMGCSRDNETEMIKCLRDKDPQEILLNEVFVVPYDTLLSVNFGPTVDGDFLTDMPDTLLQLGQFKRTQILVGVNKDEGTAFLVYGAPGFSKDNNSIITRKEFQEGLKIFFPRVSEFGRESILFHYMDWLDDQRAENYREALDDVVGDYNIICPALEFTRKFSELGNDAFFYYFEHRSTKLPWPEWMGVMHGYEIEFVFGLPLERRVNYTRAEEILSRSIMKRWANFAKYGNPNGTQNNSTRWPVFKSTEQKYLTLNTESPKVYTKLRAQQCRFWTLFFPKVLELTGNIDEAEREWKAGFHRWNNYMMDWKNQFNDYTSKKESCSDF
# procedure-summary: Inhibition of equine serum BuChE using DTNB as substrate incubated for 5 mins prior to substrate addition measured after 2 mins by Ellman's method

{"smi": "Fc1cccc(F)c1/C=C/CSSC/C=C/c1c(F)cccc1F", "IC50": "> 100 µM"}

Clc1cc(Cl)cc(/C=C/CSSC/C=C/c2cc(Cl)cc(Cl)c2)c1 on Cholinesterase (Equus caballus) gives IC50 = > 100 µM

Known value: Cholinesterase (Equus caballus) IC50 of the compound Clc1cccc(/C=C/CSSC/C=C/c2cccc(Cl)c2)c1 equals > 100 µM
